B1: TPR 5TU (parent)
chain: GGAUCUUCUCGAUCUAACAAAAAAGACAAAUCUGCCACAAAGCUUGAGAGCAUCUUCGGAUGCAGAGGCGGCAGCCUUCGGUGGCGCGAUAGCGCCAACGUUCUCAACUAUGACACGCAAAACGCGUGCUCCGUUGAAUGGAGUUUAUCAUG

variants of: B1; experiment: polymerase ribozyme fitness, log enrichment relative to wild type (log ratio); higher = more active; in vitro selection for triplet polymerase activity
Variants at the floor of the assay were thinned out.
measurementLabel: polymerase ribozyme fitness (log ratio)
Give the figure by itself; no unit, no explanation.

Please review the entries below; each comes with its answer.
# variantSpec, measurementLabel, quantitativeResult
measured = [
    ("A20C A40G A52G C85A A98G", "polymerase ribozyme fitness (log ratio)", -4.01),
    ("U13C C93A", "polymerase ribozyme fitness (log ratio)", -2.64),
    ("C72U G92A C116U U139G", "polymerase ribozyme fitness (log ratio)", -3.15),
]

G74A G141U yielded polymerase ribozyme fitness (log ratio) of -2.35

The measured polymerase ribozyme fitness (log ratio) associated with `A89G` reads -0.999

GET /value?item= G84A C131A &field=polymerase ribozyme fitness (log ratio) returns -2.79

Looking up U15G A52U , I see its polymerase ribozyme fitness (log ratio) listed as -1.59

Reported polymerase ribozyme fitness (log ratio) for U15A C38A A41C C75U U135C was -3.63

Entry C14A C54A , polymerase ribozyme fitness (log ratio) reported as -3.55

Kindly note the recorded polymerase ribozyme fitness (log ratio) for U56A G92A , which is -2.28

Looking up C51U A89C C96U A142U , I found its polymerase ribozyme fitness (log ratio) recorded as -2.78

Reported polymerase ribozyme fitness (log ratio) of C5U C51A C54G G59C G84A C116G : -3.05

For reference, reported polymerase ribozyme fitness (log ratio) for G11C G25C A28G C36G C75U C96U A115U A122U stands at -3.98

So for G141A U144C , the logged polymerase ribozyme fitness (log ratio) turned out to be -3.08
